Reference source for all entries: ChEMBL document CHEMBL4261595

# Papp values compiled below
- Protocol Description: Permeability of the compound by PAMPA
- Format: ADME
- Test Parameters: read-out: permeability

Chemical Smiles	Units Text	Papp
NS(=O)(=O)c1ccc(-c2cnn3cc(-c4ccc(C5CCNCC5)cc4)cnc23)c2ccccc12	×10⁻⁶ cm/s	78.6
CN(C)CCOc1ccc(-c2cnc3c(-c4ccc(S(N)(=O)=O)c5ccccc45)cnn3c2)cn1	×10⁻⁶ cm/s	8.8
NS(=O)(=O)c1ccc(-c2cnn3cc(-c4ccc(OCCN5CCCCC5)nc4)cnc23)c2ccccc12	×10⁻⁶ cm/s	365
CC(C)(N)c1ccc(-c2cnc3c(-c4ccc(S(N)(=O)=O)c5ccccc45)cnn3c2)cc1	×10⁻⁶ cm/s	9.4
NS(=O)(=O)c1ccc(-c2cnn3cc(-c4ccc(CN5CCCC5)cc4)cnc23)c2ccccc12	×10⁻⁶ cm/s	467
NS(=O)(=O)c1ccc(-c2cnn3cc(-c4ccc(N5CCNCC5)nc4)cnc23)c2ccccc12	×10⁻⁶ cm/s	8.3
NS(=O)(=O)c1ccc(-c2cnn3cc(-c4ccc(OCCN5CCCC5)cc4)cnc23)c2ccccc12	×10⁻⁶ cm/s	317
